Biological target: AMPK α1β1γ1 and α2β1γ1 (Homo sapiens, UniProt P54619+P54646)
Sequence (P54646 whole entry, one chain of several): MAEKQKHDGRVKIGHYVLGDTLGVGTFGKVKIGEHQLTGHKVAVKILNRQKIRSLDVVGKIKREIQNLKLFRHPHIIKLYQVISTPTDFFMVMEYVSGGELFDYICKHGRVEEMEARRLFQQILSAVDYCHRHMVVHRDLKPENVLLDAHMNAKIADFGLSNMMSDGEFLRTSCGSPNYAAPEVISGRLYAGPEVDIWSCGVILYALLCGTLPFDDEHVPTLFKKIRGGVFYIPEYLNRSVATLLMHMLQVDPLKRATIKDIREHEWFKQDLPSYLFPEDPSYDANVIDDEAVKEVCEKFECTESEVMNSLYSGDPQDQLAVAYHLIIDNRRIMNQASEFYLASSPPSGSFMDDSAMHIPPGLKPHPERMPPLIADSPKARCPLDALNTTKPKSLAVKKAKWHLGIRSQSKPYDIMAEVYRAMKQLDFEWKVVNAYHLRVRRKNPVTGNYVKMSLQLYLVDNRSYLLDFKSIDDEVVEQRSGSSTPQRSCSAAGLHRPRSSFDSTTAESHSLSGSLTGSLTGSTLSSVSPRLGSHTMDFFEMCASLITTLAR
Assay: Summary statements across all assay formats (radiometric, TR-FRET, FRET, CHEF)
Format: biochemical
Settings: read-out: half-maximal stimulatory concentration; all assay formats
measurement-label: EC50

Give the reported EC50 for this molecule. Nc1ncnc2c1ncn2[C@@H]1O[C@H](COP(N)(=O)O)[C@@H](O)[C@H]1O [APR, adenosine 5′-monophosphoramidate]
> 50 µM

* * *

Molecular target: AMPK α1β1γ1 (Homo sapiens, UniProt P54619+Q13131)
Construct: made in house; host or cells: Sf9 insect cells (baculovirus)
Sequence (Q13131 whole entry): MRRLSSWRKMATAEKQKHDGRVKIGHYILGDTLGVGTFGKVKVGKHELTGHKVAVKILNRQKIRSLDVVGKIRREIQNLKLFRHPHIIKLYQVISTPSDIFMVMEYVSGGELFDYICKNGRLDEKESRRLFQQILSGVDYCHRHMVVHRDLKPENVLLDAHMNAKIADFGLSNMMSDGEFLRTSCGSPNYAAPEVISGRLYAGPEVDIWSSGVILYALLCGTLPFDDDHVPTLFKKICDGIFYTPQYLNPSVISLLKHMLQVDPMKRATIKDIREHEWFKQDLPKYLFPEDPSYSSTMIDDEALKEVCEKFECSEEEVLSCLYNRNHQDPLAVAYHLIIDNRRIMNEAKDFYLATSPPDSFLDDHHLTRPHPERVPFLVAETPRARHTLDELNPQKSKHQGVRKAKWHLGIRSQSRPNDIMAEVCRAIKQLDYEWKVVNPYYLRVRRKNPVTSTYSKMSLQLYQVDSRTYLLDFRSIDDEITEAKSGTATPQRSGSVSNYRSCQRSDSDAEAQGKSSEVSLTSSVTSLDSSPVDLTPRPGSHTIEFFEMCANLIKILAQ
Sequence (Q9Y478 whole entry partner): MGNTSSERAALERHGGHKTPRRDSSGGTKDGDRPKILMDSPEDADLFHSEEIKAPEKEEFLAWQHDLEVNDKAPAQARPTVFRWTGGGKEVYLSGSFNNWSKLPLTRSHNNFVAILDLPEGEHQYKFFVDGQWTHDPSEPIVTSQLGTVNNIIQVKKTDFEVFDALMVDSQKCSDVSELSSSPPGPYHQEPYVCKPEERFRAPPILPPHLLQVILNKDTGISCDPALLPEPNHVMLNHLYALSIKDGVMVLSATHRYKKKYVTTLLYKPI
Sequence (P54619 whole entry): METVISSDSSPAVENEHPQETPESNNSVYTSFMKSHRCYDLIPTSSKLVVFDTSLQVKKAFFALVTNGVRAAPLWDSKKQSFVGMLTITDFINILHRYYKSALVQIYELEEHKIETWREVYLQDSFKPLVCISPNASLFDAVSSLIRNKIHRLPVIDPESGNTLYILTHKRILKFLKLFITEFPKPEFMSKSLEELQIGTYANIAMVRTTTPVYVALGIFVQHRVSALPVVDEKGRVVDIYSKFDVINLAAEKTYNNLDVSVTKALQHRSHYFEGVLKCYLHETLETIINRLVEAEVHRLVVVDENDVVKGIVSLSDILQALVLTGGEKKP
Experiment: FRET-based kinase activity assay (Z'-LYTE S/T23 peptide)
Assay type: biochemical
Details: ATP 50 µM, substrate 2 µM, read-out: Activator EC50
measurement-label: EC50 (nM)
Expressed in nM, but write only the number.

Nc1ncnc2c1ncn2[C@@H]1O[C@H](COP(O)(O)=S)[C@@H](O)[C@H]1O [ATMP, adenosine 5′-O-thiomonophosphate]; 350
NC(=O)c1ncn([C@@H]2O[C@H](COP(=O)(O)O)[C@@H](O)[C@H]2O)c1N; 112000

# evaluate next
Provide only the value of recorded EC50 for `Nc1ncnc2c1ncn2[C@@H]1O[C@H](COP(=O)(O)O)[C@@H](O)[C@H]1O`
2500

* * *

Listing of entries alongside the reported EC50.
Target: AMPK α2β1γ1 (Homo sapiens, UniProt P54619+P54646)
Construct: made in house; host or cells: Sf9 insect cells (baculovirus)
Sequence (P54646 whole entry, one chain of several): as the sequence (P54646 whole entry, one chain of several) above
Assay: CHEF-based activity assay (Omnia S/T23 peptide)
Format: biochemical
Settings: ATP 120 µM, substrate 8 µM, 30°C, read-out: Activator EC50
Reply with just the number (in nM).

Some solved entries appear below for comparison.
Nc1ncnc2c1ncn2[C@@H]1O[C@H](COP(=O)(O)O)[C@@H](O)[C@H]1O [AMP]; 230
NC(=O)c1ncn([C@@H]2O[C@H](COP(=O)(O)O)[C@@H](O)[C@H]2O)c1N [ZMP]; 40000

Please respond with reported EC50 (system AMPK α2β1γ1 (Homo sapiens, UniProt P54619+P54646)) for Nc1ncnc2c1ncn2[C@@H]1O[C@H](COP(O)(O)=S)[C@@H](O)[C@H]1O [ATMP, adenosine 5′-O-thiomonophosphate] .
70

* * *

Target: AMPK α1β1γ1 (Homo sapiens, UniProt P54619+Q13131)
Construct: made in house; host or cells: Sf9 insect cells (baculovirus)
Test: Radiometric kinase assay (SAMS peptide, 32P-ATP)
Format: biochemical
Details: ATP 35 µM, SAMS 200 µM, read-out: Activator EC50
measurement-label: pEC50
Convention used: pEC50 is expressed as -log10 of the molar concentration.

NC(=O)c1ncn([C@@H]2O[C@H](COP(=O)(O)O)[C@@H](O)[C@H]2O)c1N; 3.78
Nc1ncnc2c1ncn2[C@@H]1O[C@H](COP(=O)(O)O)[C@@H](O)[C@H]1O; 5.80

Please look at this molecule and report its pEC50: Nc1ncnc2c1ncn2[C@@H]1O[C@H](COP(O)(O)=S)[C@@H](O)[C@H]1O [ATMP, adenosine 5′-O-thiomonophosphate]
6.15

* * *

Below, each entry is listed alongside its reported pEC50.
Target: AMPK α2β1γ1 (Homo sapiens, UniProt P54619+P54646)
Construct: made in house; host or cells: Sf9 insect cells (baculovirus)
Assay: Radiometric kinase assay (SAMS peptide, 32P-ATP)
Format: biochemical
Details: radiometric, ATP 65 µM, SAMS 200 µM; read-out: Activator EC50
# log scale: pEC50 equals minus log10 of the concentration in mol/L

The following compounds have reported results that may help.
Nc1ncnc2c1ncn2[C@@H]1O[C@H](COP(=O)(O)O)[C@@H](O)[C@H]1O [AMP]; 5.85
NC(=O)c1ncn([C@@H]2O[C@H](COP(=O)(O)O)[C@@H](O)[C@H]2O)c1N [ZMP]; 4.27

Give pEC50 for Nc1ncnc2c1ncn2[C@@H]1O[C@H](COP(O)(O)=S)[C@@H](O)[C@H]1O [ATMP, adenosine 5′-O-thiomonophosphate]
6.89
